Target: α2-C2 adrenergic receptor (Homo sapiens, UniProt P18089)
Construct: expressed in transfected cells; host or cells: NIH 3T3
Sequence (P18089 whole entry): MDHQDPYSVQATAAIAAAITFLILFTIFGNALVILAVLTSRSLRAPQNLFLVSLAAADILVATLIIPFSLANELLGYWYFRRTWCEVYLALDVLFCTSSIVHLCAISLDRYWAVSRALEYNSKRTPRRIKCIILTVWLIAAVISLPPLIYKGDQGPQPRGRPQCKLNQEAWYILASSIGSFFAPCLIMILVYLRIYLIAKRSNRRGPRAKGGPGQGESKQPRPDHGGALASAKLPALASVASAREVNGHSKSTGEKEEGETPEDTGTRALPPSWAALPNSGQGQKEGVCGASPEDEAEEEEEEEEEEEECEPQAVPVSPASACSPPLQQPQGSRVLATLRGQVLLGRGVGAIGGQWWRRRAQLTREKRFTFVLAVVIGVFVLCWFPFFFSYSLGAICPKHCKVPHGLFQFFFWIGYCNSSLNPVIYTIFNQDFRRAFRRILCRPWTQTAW
Experiment: Single Receptor Format amplification assay, alpha 2 C2
Type: cell-based
Details: relative to other ligands at the given receptor

| molecule | Max Response, α2-C2 |
| --- | --- |
| C1COC(NC(C2CC2)C2CC2)=N1 | ± |
| CCN1CCc2nc(N)oc2CC1 | +++ |
| C=CCN1CCc2nc(N)sc2CC1 | +++ |
| NC[C@H](O)c1ccc(O)c(O)c1 [Norepinephrine] | ++ |

====

Target: α2-C10 adrenergic receptor (Homo sapiens, UniProt P08913)
Construct: expressed in transfected cells; host or cells: NIH 3T3
Sequence (P08913 whole entry): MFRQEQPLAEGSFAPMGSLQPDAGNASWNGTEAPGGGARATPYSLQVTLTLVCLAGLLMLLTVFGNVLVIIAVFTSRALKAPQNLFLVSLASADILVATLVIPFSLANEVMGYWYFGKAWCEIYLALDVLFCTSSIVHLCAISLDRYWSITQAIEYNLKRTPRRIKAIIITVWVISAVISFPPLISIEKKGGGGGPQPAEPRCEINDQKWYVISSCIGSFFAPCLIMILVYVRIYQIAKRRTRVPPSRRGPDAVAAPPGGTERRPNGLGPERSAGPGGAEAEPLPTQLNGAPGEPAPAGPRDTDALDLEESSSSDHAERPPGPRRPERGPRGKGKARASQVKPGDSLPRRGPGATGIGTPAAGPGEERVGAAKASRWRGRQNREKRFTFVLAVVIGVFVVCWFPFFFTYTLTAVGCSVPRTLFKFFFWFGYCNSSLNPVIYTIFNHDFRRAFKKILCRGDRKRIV
Assay: Single Receptor Format amplification assay, alpha 2 C10
Type: cell-based
Details: relative to other ligands at the given receptor

| molecule | target_or_test_system | Max Response, α2-C10 |
| --- | --- | --- |
| Nc1cc(Cl)c(N=C2NCCN2)c(Cl)c1 [p-NH2-Clonidine] | α2-C10 adrenergic receptor (Homo sapiens, UniProt P08913) | ± |
| C1COC(NC(C2CC2)C2CC2)=N1 [Rilmenidine] | α2-C10 adrenergic receptor (Homo sapiens, UniProt P08913) | ± |
| Cc1cccc([C@H](C)c2cnc[nH]2)c1C [Dexmedetomidine] | α2-C10 adrenergic receptor (Homo sapiens, UniProt P08913) | ± |
| COc1cc2nc(N3CCN(C(=O)c4ccco4)CC3)nc(N)c2cc1OC [Prazocin] | α2-C10 adrenergic receptor (Homo sapiens, UniProt P08913) | ± |
| CCN1CCc2nc(N)oc2CC1 [BHT 933] | α2-C10 adrenergic receptor (Homo sapiens, UniProt P08913) | ++ |
| C=CCN1CCc2nc(N)sc2CC1 [BHT 920] | α2-C10 adrenergic receptor (Homo sapiens, UniProt P08913) | +++ |
